System: STZ-induced diabetes model
Method Summary: STZ-induced diabetic nephropathy, kidney disease and retinopathy model (28 days treatment)
Test Parameters: day 28 of treatment (week 9); serum; 15 mg/kg IV, Captopril 50 mg/kg PO

Compound: O=C(O)c1cc(O)cc(CS(=O)(=O)Cc2cc(O)cc(C(=O)O)c2O)c1O [IVc-059a]
Blood IL-6: 120.88
//
Compound: C[C@H](CS)C(=O)N1CCC[C@H]1C(=O)O [Captopril, reference compound]
Blood IL-6: 125.56
//
Compound: O=C(O)c1cc(O)c(C(=O)Nc2ccccc2-c2nnn[nH]2)cc1O [Ia-001a-Tz]
Blood IL-6: 112.35
//
Compound: O=C(O)c1cc(O)c(CN(Cc2cc(O)c(C(=O)O)cc2O)Cc2cc(O)c(C(=O)O)cc2O)cc1O [IIIc-061a]
Blood IL-6: 117.59

* * *

# IC50 values compiled below
Tested on: IL-17A
Method Summary: Cytokine release after LPS induction on human whole blood: IL-17A
Type: cell-based
Test Parameters: human whole blood, inhibition of LPS induced inflammation; read-out: IC50 IL-17A

Compound: CCOC(=O)c1cc(NC(=O)c2cc(O)c(C(=O)OCC)cc2O)cc(NC(=O)c2cc(O)c(C(=O)OCC)cc2O)c1 [Ib-010a-E3]
Target Entity: IL-17A
Unit Of Measure: nM
IC50: 520
//
Compound: O=C(O)c1cc(NC(=O)c2cc(O)cc(C(=O)Nc3ccc(O)c(C(=O)O)c3)c2O)ccc1O [IIc-007a]
Target Entity: IL-17A
Unit Of Measure: nM
IC50: 10
//
Compound: O=C(O)c1cc(NC(=O)c2cc(O)c(C(=O)O)cc2O)cc(C(=O)O)c1 [Ia-015a]
Target Entity: IL-17A
Unit Of Measure: nM
IC50: 50
//
Compound: CC(=O)N(Cc1cc(O)c(C(=O)O)cc1O)Cc1cc(O)c(C(=O)O)cc1O [IIIc-057a]
Target Entity: IL-17A
Unit Of Measure: nM
IC50: 1320
//
Compound: COC(=O)c1cc(OC(C)=O)cc(CS(=O)(=O)Cc2cc(OC(C)=O)cc(C(=O)OC)c2OC(C)=O)c1OC(C)=O [IVc-059a-E2-A4]
Target Entity: IL-17A
Unit Of Measure: nM
IC50: 20

* * *

Test system: IL-33
Method Summary: Cytokine release after LPS induction on human whole blood: IL-33
Format: cell-based
Test Parameters: human whole blood, inhibition of LPS induced inflammation; read-out: IC50 IL-33
Response field class: string, computed from recorded IC50 by ranges low (below 10 µM), medium (10 µM to below 20 µM), high (20 µM or more)

Compound: O=C(O)c1cc(NC(=O)c2cc(O)c(C(=O)Nc3ccc(O)c(C(=O)O)c3)cc2O)ccc1O [Ic-007a]
Group: medium
//
Compound: O=C(O)Cc1cc(O)c(C(=O)Nc2ccccc2-c2nnn[nH]2)cc1O [IIIa-001aTz]
Group: low
//
Compound: O=C(O)c1ccccc1CNC(=O)c1cc(O)cc(C(=O)O)c1O [IIa-053a]
Group: medium
//
Compound: O=C(O)c1cc(O)c(C(=O)Nc2ccccc2-c2nnn[nH]2)cc1O [Ia-001a-Tz]
Group: high
//
Compound: O=C(O)c1cc(O)c(C(=O)Nc2ccccc2S(=O)(=O)O)cc1O [Ia-001c]
Group: high
//
Compound: O=C(O)c1cc(NC(=O)c2cc(O)cc(C(=O)Nc3ccc(O)c(C(=O)O)c3)c2O)ccc1O [IIc-007a]
Group: low
//
Compound: O=C(O)c1cc(O)c(C(=O)Nc2ccc(-c3nnn[nH]3)cc2)cc1O [Ia-003a-Tz]
Group: high
//
Compound: O=C(O)c1cc(O)cc(CSCc2cc(O)cc(C(=O)O)c2O)c1O [IVc-058a]
Group: high
//
Compound: O=C(O)c1cc(NC(=O)c2cc(O)c(C(=O)O)cc2O)cc(C(=O)O)c1 [Ia-015a]
Group: low

* * *

Target Entity: VEGFR-2 (Homo sapiens, UniProt P35968)
Construct: endogenous in cells
Sequence (P35968 20-1356): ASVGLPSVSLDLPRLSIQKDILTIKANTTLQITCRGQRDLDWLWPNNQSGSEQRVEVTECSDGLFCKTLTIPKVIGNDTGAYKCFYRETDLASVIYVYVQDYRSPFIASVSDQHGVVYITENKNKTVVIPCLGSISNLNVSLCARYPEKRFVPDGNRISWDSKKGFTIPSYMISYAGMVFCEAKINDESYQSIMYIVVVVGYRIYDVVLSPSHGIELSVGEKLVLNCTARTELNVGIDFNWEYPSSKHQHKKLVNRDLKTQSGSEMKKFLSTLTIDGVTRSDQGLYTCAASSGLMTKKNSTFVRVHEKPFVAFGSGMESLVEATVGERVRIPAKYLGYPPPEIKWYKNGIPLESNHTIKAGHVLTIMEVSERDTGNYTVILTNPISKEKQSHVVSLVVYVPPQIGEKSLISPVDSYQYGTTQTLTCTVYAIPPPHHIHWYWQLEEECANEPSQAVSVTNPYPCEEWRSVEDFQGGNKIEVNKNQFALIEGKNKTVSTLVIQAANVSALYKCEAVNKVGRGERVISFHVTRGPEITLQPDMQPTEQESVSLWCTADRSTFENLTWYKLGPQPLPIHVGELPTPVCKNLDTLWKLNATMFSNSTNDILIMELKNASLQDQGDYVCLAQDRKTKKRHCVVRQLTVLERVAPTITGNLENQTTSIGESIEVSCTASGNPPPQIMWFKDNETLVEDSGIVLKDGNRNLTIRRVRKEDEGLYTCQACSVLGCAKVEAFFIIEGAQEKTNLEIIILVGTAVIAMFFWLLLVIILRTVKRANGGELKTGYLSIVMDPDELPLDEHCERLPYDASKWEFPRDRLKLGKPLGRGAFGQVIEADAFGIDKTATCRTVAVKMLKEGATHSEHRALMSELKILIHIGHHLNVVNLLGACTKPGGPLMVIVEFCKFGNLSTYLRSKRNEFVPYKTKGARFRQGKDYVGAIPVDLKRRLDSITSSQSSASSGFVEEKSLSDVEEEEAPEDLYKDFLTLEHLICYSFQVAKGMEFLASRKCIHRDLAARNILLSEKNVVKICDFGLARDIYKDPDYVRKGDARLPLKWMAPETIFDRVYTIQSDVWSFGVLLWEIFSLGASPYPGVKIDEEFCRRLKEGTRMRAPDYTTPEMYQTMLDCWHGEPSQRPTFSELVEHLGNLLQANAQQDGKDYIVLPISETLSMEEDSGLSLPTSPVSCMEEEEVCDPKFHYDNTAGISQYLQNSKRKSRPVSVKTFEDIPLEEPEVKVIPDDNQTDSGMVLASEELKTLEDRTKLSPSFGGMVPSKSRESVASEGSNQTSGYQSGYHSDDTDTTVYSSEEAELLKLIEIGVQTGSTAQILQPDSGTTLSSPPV
Method Summary: VEGF-165 induced phosphorylation of VEGF-Receptor on HUVEC
Test Parameters: HUVEC preincubated 60 min, VEGF165 25 ng/mL 2 min; read-out: VEGFR-Phosphorylation inhibition IC50
pIC50: −log10 of the molar value.
Tick 1 if pIC50 is 6 or greater. Tick -1 if pIC50 is less than 6.

Molecule: O=C(O)c1cc(O)c(C(=O)NCCc2ccc(O)c(O)c2)cc1O [Ia-035a-2]
Group: -1
--
Molecule: O=C(O)c1cc(O)c(C(=O)NCc2ccc(O)c(O)c2)cc1O [Ia-035a]
Group: -1
--
Molecule: O=C(O)c1cc(O)c(C(=O)NC(C(=O)O)c2ccc(O)c(O)c2)cc1O (centres unmarked) [Ia-036a]
Group: -1
--
Molecule: CCOC(=O)c1cc(NC(=O)c2cc(OC(C)=O)c(C(=O)OCC)cc2OC(C)=O)cc(NC(=O)c2cc(OC(C)=O)c(C(=O)OCC)cc2OC(C)=O)c1 [Ib-010a-E3-A4]
Group: 1
--
Molecule: CCOC(=O)Cc1cc(O)c(C(=O)Nc2cc(NC(=O)c3cc(O)c(CC(=O)OCC)cc3O)cc(C(=O)OC)c2)cc1O [IIIb-010a-E3]
Group: 1
--
Molecule: CCOC(=O)Cc1cc(O)c(C(=O)Nc2ccccc2-c2nnn[nH]2)cc1O [IIIa-001aTz-E1]
Group: 1
--
Molecule: O=C(O)Cc1cccc(NC(=O)c2cc(O)c(C(=O)O)cc2O)c1 [Ia-033a]
Group: -1
--
Molecule: O=C(O)c1cc(O)c(C(=O)Nc2ccc(-c3nnn[nH]3)cc2)cc1O [Ia-003a-Tz]
Group: -1
--
Molecule: O=C(O)c1cc(NC(=O)c2cc(O)c(C(=O)Nc3ccccc3-c3nnn[nH]3)cc2O)ccc1O [Ic-001a-Tz/004a]
Group: -1
--
Molecule: CCOC(=O)c1cc(O)c(C(=O)Nc2cnccc2C(=O)OCC)cc1O [Ia-023a-E2]
Group: -1
--
Molecule: O=C(O)c1cc(O)c(CSCc2cc(O)c(C(=O)O)cc2O)cc1O [IIIc-058a]
Group: 1
--
Molecule: O=C(O)c1cc(O)c(C(=O)NCc2ccccc2C(=O)O)cc1O [Ia-053a]
Group: -1
--
Molecule: O=C(O)c1cc(O)cc(C(=O)Nc2cccc(C(=O)O)c2C(=O)O)c1O [IIa-011a]
Group: -1
--
Molecule: O=C(O)c1cc(NC(=O)c2cc(O)cc(C(=O)Nc3ccc(O)c(C(=O)O)c3)c2O)ccc1O [IIc-007a]
Group: 1
--
Molecule: CCOC(=O)c1cc(O)c(-c2nc3c(C(=O)OC)cccc3[nH]2)cc1O [Id-030a-E2]
Group: 1
--
Molecule: O=C(O)Cc1ccccc1NC(=O)c1cc(O)c(C(=O)O)cc1O [Ia-034a]
Group: -1
--
Molecule: O=C(O)Cc1cccc(NC(=O)c2cc(O)cc(C(=O)O)c2O)c1 [IIa-033a]
Group: -1
--
Molecule: O=C(O)c1ccccc1CNC(=O)c1cc(O)cc(C(=O)O)c1O [IIa-053a]
Group: 1
--
Molecule: O=C(O)c1cc(O)c(C(=O)Nc2cccc(-c3nnn[nH]3)c2)cc1O [Ia-002a-Tz]
Group: -1

* * *

Test system: IL-21
Method Summary: Cytokine release after LPS induction on human whole blood: IL-21
Type: cell-based
Test Parameters: human whole blood, inhibition of LPS induced inflammation; read-out: IC50 IL-21
pIC50: −log10 of the molar value.

Compound: O=C(O)c1cc(O)c(C(=O)Nc2ccccc2-c2nnn[nH]2)cc1O [Ia-001a-Tz]
pIC50: 4.00
--
Compound: CCOC(=O)c1cc(NC(=O)c2cc(O)c(C(=O)OCC)cc2O)cc(NC(=O)c2cc(O)c(C(=O)OCC)cc2O)c1 [Ib-010a-E3]
pIC50: 4.00
--
Compound: CC(=O)N(Cc1cc(O)c(C(=O)O)cc1O)Cc1cc(O)c(C(=O)O)cc1O [IIIc-057a]
pIC50: 5.81
--
Compound: O=C(O)c1cc(NC(=O)c2cc(O)c(C(=O)Nc3ccc(O)c(C(=O)O)c3)cc2O)ccc1O [Ic-007a]
pIC50: 5.72
--
Compound: O=C(O)c1ccccc1CNC(=O)c1cc(O)cc(C(=O)O)c1O [IIa-053a]
pIC50: 4.00

* * *

System: STZ-induced diabetes model
Method Summary: STZ-induced diabetic nephropathy, kidney disease and retinopathy model (28 days treatment)
Test Parameters: day 0; 15 mg/kg IV, Captopril 50 mg/kg PO
# Mean day 0 blood glucose Concentration (mmol/L) (SD) values compiled below
Reported Endpoint: Mean day 0 blood glucose Concentration (mmol/L) (SD)

Compound: O=C(O)c1cc(O)cc(CS(=O)(=O)Cc2cc(O)cc(C(=O)O)c2O)c1O [IVc-059a]
Result Value: 24.3 (6.4) mmol/L

Compound: O=C(O)c1cc(O)c(C(=O)Nc2ccccc2C(=O)O)cc1O [Ia-001a]
Result Value: 25.7 (6.3) mmol/L

Compound: O=C(O)c1cc(NC(=O)c2cc(O)c(C(=O)O)cc2O)cc(NC(=O)c2cc(O)c(C(=O)O)cc2O)c1 [Ib-010a]
Result Value: 25.1 (6.1) mmol/L

Compound: C[C@H](CS)C(=O)N1CCC[C@H]1C(=O)O [Captopril, reference compound]
Result Value: 23.7 (6.9) mmol/L

Compound: O=C(O)c1cc(O)c(C(=O)Nc2ccccc2-c2nnn[nH]2)cc1O [Ia-001a-Tz]
Result Value: 24.9 (7.4) mmol/L

Compound: O=C(O)c1cc(NC(=O)c2cc(O)c(C(=O)Nc3ccccc3-c3nnn[nH]3)cc2O)ccc1O [Ic-001a-Tz/004a]
Result Value: 25.8 (5.7) mmol/L
